Assay text: Plasma pharmacokinetics after oral multi-dose anatabine polacrilex
Type: in vivo, Sprague-Dawley rats
Condition: male, Sprague-Dawley, rat, plasma, po, 0.6 mg/kg, male rats, after dose 3, mean; read-out: Tmax(3)
Value type: Tmax (h)
Express your answer in h, writing the number without its unit.

Look up Tmax for this molecule: C1=CCC(c2cccnc2)NC1 (racemic) [Anatabine, 1,2,3,6-tetrahydro-[2,3′]bipyridinyl]
1

---

Assay text: Plasma toxicokinetics after single i.v. bolus
Format: in vivo, Sprague-Dawley rats
Condition: female, Sprague-Dawley, rat, plasma, intravenous, 0.75 mg/kg, Anatabine 0.75 mg/kg; female; 4 hr; read-out: Avg. Conc. rat plasma
Value type: concentration at 4 h (ng/mL)
Report the value in ng/mL with no unit label.

Please look up its concentration at 4 h: C1=CCC(c2cccnc2)NC1 (racemic) [Anatabine, 1,2,3,6-tetrahydro-[2,3′]bipyridinyl]
45.3

---

Assay text: Plasma toxicokinetics after single i.v. bolus
Format: in vivo, Sprague-Dawley rats
Condition: male, Sprague-Dawley, rat, plasma, iv, 0.1 mg/kg
Value type: Vd (L/kg)
Number only, in L/kg; omit the unit.

Vd lookup needed for C1=CCC(c2cccnc2)NC1 (racemic) [Anatabine, 1,2,3,6-tetrahydro-[2,3′]bipyridinyl] , thanks.
5.29

---

Assay text: Plasma toxicokinetics after single i.v. bolus
Format: in vivo, Sprague-Dawley rats
Condition: male, Sprague-Dawley, rat, plasma, intravenous, 0.75 mg/kg, Anatabine 0.75 mg/kg; male; 2 hr; read-out: Avg. Conc. rat plasma
Value type: concentration at 2 h (ng/mL)
Provide the reading as a plain figure in ng/mL.

Data request, read-out concentration at 2 h, for C1=CCC(c2cccnc2)NC1 (racemic) [Anatabine, 1,2,3,6-tetrahydro-[2,3′]bipyridinyl]
83.7

---

Assay text: Plasma toxicokinetics after single i.v. bolus
Assay type: in vivo, Sprague-Dawley rats
Condition: Sprague-Dawley, rat, plasma, intravenous, 0.75 mg/kg, Concentration of anatabine in rat plasma, Anatabine 0.75 mg/kg, rat plasma, 1 hr, rats of group 4
Procedure: Six rats (3 males and 3 females) were dosed per dose group. […] Plasma and brain homogenates were stored at −80° C. until analysis. […] Four aliquots of each dose level formulation were collected and stored at −80° C. […] The physical signs of each animal were monitored following administration of the test compound. […] Sample preparation. […] The amount of the test agent in the supernatant was determined by liquid chromatography tandem mass spectrometry (LC/MS/MS). […]
Value type: concentration at 1 h
Could you kindly put the unit after your number?

concentration at 1 h lookup needed for C1=CCC(c2cccnc2)NC1 (racemic) [Anatabine, 1,2,3,6-tetrahydro-[2,3′]bipyridinyl] , thanks.
146 ng/mL

---

Assay text: Plasma pharmacokinetics after oral multi-dose anatabine polacrilex
Assay type: in vivo, Sprague-Dawley rats
Condition: both sexes, Sprague-Dawley, rat, plasma, po, 0.6 mg/kg, male and female combined, mean; read-out: t1/2,terminal (converted)
Value type: half-life

# half-life lookup, item C1=CCC(c2cccnc2)NC1 (racemic) [Anatabine, 1,2,3,6-tetrahydro-[2,3′]bipyridinyl]
107 min

---

Assay text: Plasma pharmacokinetics after oral multi-dose anatabine polacrilex
Assay type: in vivo, Sprague-Dawley rats
Condition: both sexes, Sprague-Dawley, rat, plasma, oral, 0.2 mg/kg, Avg. Conc. of anatabine in plasma, Male and Female, dose group 0.2, combined male and female, 60 min
Value type: concentration at 60 min (ng/mL)
Number only, in ng/mL; omit the unit.

# get_value(readout='concentration at 60 min', item= C1=CCC(c2cccnc2)NC1 (racemic) [Anatabine, 1,2,3,6-tetrahydro-[2,3′]bipyridinyl] )
31

src = patent US20120196899A1
